- TESTED_TARGET: Adenosine receptor A2b (Homo sapiens)
- EXPERIMENTAL_PROTOCOL: Antagonist activity at human adenosine A2B receptor expressed in CHO cells assessed as inhibition of NECA-stimulated [3H]cAMP production at 1 uM by scintillation counting
- Format: functional, cell-based
Recorded inhibition by entry
RECORDED_METRIC: inhibition (%)

                         chemical_structure                          tested_target  readout_value
0     CCc1nc2cn(-c3ccc(OC)cc3)nc2c(=O)[nH]1  Adenosine receptor A2b (Homo sapiens)              5
1  O=c1[nH]c(-c2ccccc2)nc2cn(-c3ccccc3)nc12  Adenosine receptor A2b (Homo sapiens)              4
2  COc1ccc(-n2cc3nc(-c4ccccc4)[nH]c(=O)c3n2)cc1  Adenosine receptor A2b (Homo sapiens)              5
